Reported values of self-cleavage for individual entries
B1: HDV Ribozyme (parent)
chain: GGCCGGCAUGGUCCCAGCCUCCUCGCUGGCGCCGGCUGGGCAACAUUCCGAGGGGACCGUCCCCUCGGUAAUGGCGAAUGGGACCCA

Variants of: B1
Assay: self-cleavage, relative activity (ratio to wild type); higher = more cleavage; co-transcriptional
Provide a numeric answer; units are not to be included.

See these solved cases before continuing.
U20A A78C    0.107
C64G U79C    0.623

stdin: Reported self-cleavage for C26A A83G : what is it?
stdout: 0.729

stdin: Please give the measured self-cleavage for this variant: C14A C15G
stdout: 0.138

stdin: For the variant shown here, C58A A78G , give the reported self-cleavage.
stdout: 0.697

stdin: So what's the measured self-cleavage for this one? C30A G38C
stdout: 0.203

stdin: What self-cleavage value was documented for this variant, U72A G82C ?
stdout: 0.208

stdin: Request the reported self-cleavage associated with G31A A87C
stdout: 0.385

stdin: Find the recorded self-cleavage belonging to C64U G82C and report it.
stdout: 0.208

stdin: Look at this variant and give its reported self-cleavage. G31U U69C
stdout: 0.396

stdin: State the recorded self-cleavage for this entry: G1U A45U
stdout: 0.441

Data provenance is the RNAGym collection of RNA variant scans (doi:10.7554/elife.80360).
